Value source: patent US20220135638A1

Study System: T1, full-length human GLP-1R (GenBank NM_002062) with an N-terminal FLAG tag on HEK-293T cells (human), P43220
T1 chain: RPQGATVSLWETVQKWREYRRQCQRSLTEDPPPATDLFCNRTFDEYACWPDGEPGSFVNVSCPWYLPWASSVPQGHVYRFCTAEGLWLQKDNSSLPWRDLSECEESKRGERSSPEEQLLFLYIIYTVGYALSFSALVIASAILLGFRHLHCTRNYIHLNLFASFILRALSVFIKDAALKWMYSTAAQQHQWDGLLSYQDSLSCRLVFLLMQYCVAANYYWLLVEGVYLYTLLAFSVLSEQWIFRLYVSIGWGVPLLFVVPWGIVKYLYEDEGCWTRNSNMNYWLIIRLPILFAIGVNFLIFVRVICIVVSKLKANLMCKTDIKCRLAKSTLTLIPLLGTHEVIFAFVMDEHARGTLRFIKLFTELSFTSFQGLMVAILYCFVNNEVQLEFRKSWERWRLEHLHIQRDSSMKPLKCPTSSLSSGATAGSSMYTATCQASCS
Experimental Details: cell-based or functional assay
Numbered stars: 1 amine (or outer) side, 2 acyl side, 3 side chain; on linkers, the order of the positions; unused ones are H or OH. Square brackets hold non-standard residues; d marks the D form. Primed or numbered codes have the meaning given here. Side chains are listed from the residue outwards. Ends that are not written are not given here. * marks the point of attachment. C18 diacid = O=C(O)CCCCCCCCCCCCCCCCC(=O)*; C16 diacid = O=C(O)CCCCCCCCCCCCCCC(=O)*; γGlu = O=C(O)[C@H](CCC(=O)[*:2])N[*:1]; Iva = CC[C@](C)(N)C(=O)O; PEG3′ = not defined here; Aib = CC(C)(N)C(=O)O
GLP EC50: recorded values
Write down the numeric answer in nM and omit the unit.

The reported GLP EC50 of the binder Y[Aib]EGTFISDYSIALDR[Aib]HQ[Aib]NFVNW[Iva]LAQRPK([PEG3′-γGlu-C16 diacid])SGAPPPSS (ends and bridges not checked) [Compound No. 512] was 126

Record summary for Y[Aib]EGTFISDYSIALDR[Aib]HQ[Aib]NFVNW[Iva]LAQRPSSGAPK([PEG3′-PEG3′-C18 diacid])PSR (ends and bridges not checked) [Compound No 928] : reported GLP EC50 = 135
